tested on: Amaranthus rudis (AMATA); assay: Postemergence herbicide evaluation, percent reduction in plant size vs untreated control, 21 days after treatment; assay type: in vivo, Amaranthus rudis (tall water hemp); conditions: Amaranthus tuberculatus, post-emergence, 504 h, AMATA, rate 280 g ae/ha, postemergence; read-out: Control/Injury
So I've got a bunch of compounds here, and I need their pest or weed control at 280 g/ha values.
Number only, in %; omit the unit.

Task: Given COc1c(Cl)ccc(Cl)c1C(=O)O/N=C/c1cc(/C=N/OC(=O)c2c(Cl)ccc(Cl)c2OC)cc(/C=N/OC(=O)c2c(Cl)ccc(Cl)c2OC)c1 , respond with its pest or weed control at 280 g/ha.
Result: 78

Task: Given COc1c(Cl)ccc(Cl)c1C(=O)n1oc2ccccc2c1=O , respond with its pest or weed control at 280 g/ha.
Result: 28

Task: Given COc1c(Cl)ccc(Cl)c1C(=O)O/N=C(\N)c1cccnc1 , respond with its pest or weed control at 280 g/ha.
Result: 97

Task: Given COc1c(Cl)ccc(Cl)c1C(=O)O/N=C/c1ccccc1 , respond with its pest or weed control at 280 g/ha.
Result: 77

Task: Given COc1c(Cl)ccc(Cl)c1C(=O)ONC(C)=O , respond with its pest or weed control at 280 g/ha.
Result: 40

Task: Given COc1c(Cl)ccc(Cl)c1C(=O)NNc1ccccc1 , respond with its pest or weed control at 280 g/ha.
Result: 30

Task: Given COc1c(Cl)ccc(Cl)c1C(=O)O/N=C(\C)C(C)(C)C , respond with its pest or weed control at 280 g/ha.
Result: 72

Task: Given COc1c(Cl)ccc(Cl)c1C(=O)O/N=C(/C)N , respond with its pest or weed control at 280 g/ha.
Result: 74

Task: Given C=CCONC(=O)c1c(Cl)ccc(Cl)c1OC , respond with its pest or weed control at 280 g/ha.
Result: 33

Task: Given CCO/C(C)=N\OC(=O)c1c(Cl)ccc(Cl)c1OC , respond with its pest or weed control at 280 g/ha.
Result: 75

Task: Given COc1c(Cl)ccc(Cl)c1C(=O)NS(=O)(=O)c1ccc(C)cc1 , respond with its pest or weed control at 280 g/ha.
Result: 20

Task: Given COc1c(Cl)ccc(Cl)c1C(=O)N(C)OC , respond with its pest or weed control at 280 g/ha.
Result: 23

Task: Given CCN(CC)C(=O)c1c(Cl)ccc(Cl)c1OC , respond with its pest or weed control at 280 g/ha.
Result: 18

Task: Given COc1c(Cl)ccc(Cl)c1C(=O)NCc1ccccc1 , respond with its pest or weed control at 280 g/ha.
Result: 5

Task: Given COc1c(Cl)ccc(Cl)c1C(=O)Nc1ccon1 , respond with its pest or weed control at 280 g/ha.
Result: 28

Task: Given COc1c(Cl)ccc(Cl)c1C(=O)OC(=O)c1c(Cl)ccc(Cl)c1OC , respond with its pest or weed control at 280 g/ha.
Result: 18

Task: Given COc1c(Cl)ccc(Cl)c1C(=O)NOc1ccc([N+](=O)[O-])cc1 , respond with its pest or weed control at 280 g/ha.
Result: 68

Task: Given COc1c(Cl)ccc(Cl)c1C(=O)NOc1ccccc1 , respond with its pest or weed control at 280 g/ha.
Result: 10

Task: Given COc1c(Cl)ccc(Cl)c1C(=O)Nc1ccnn1C , respond with its pest or weed control at 280 g/ha.
Result: 8

Where do the numbers come from? From patent US20240122179A1.
